Recorded values, source patent US20260242478A1.

- targetUnderTest: anti-CD28 Fab (SEQ ID NOs: 696, 697)
- Sequence (VH, as listed by the source, chain 1 of 2): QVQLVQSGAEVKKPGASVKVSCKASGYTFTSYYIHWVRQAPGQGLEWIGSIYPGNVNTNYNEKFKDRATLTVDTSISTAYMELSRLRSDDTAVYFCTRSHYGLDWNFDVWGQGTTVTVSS
- Sequence (VL, as listed by the source, chain 2 of 2): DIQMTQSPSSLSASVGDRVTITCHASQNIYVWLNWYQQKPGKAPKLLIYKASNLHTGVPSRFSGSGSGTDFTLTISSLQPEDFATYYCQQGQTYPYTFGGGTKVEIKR
- assayDetails: phage binding ELISA; biotinylated Fab on neutravidin plate, clonal phage supernatant, anti-M13 HRP detection;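 also: phage from clones picked after panning, added to wells pre-incubated with blocking buffer with or without CD28 antigen, then briefly incubated and washed before detection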
readoutKind: Anti-CD28 Fab (SEQ ID NOs: 696, 697) signal
Could you respond with only the numeric value?

State its Anti-CD28 Fab (SEQ ID NOs: 696, 697) signal: YCEGHLPQYLQKCL (tested as crude phage supernatant) [Phage-626]
2.16

State its Anti-CD28 Fab (SEQ ID NOs: 696, 697) signal: YCDGHSLEYMAKCL (tested as crude phage supernatant) [Phage-630]
2.15

State its Anti-CD28 Fab (SEQ ID NOs: 696, 697) signal: YCAGHAPEYMQKCL (tested as crude phage supernatant) [Phage-624]
2.16

State its Anti-CD28 Fab (SEQ ID NOs: 696, 697) signal: YCDGHSNEYMAKCL (tested as crude phage supernatant) [Phage-625]
2.16

State its Anti-CD28 Fab (SEQ ID NOs: 696, 697) signal: YCDGHMPEYMWKCL (tested as crude phage supernatant) [Phage-620]
2.17

State its Anti-CD28 Fab (SEQ ID NOs: 696, 697) signal: YCAGHSPEYMTKCL (tested as crude phage supernatant) [Phage-621]
2.17
